- Assayed system: A*02:03
- Procedure summary: SPR; low fitting confidence
pKd: −log10 of the molar value.
Readout kind: pKd

Take a look at these entries with their results.
INSERT INTO measurements (binder, observed_measurement) VALUES
  ('AS170036 VL1VH1-98I108A (scFv) scFv: QSALTQPRSVSGSPGQSVTISCAGTSSDVGSENYVSWYQQHPGKAPKLMIYQVNKRASGVPDRFSGSKSGNTASLTISGLQAEDEADYYCASYRSSDINIVFGGGTKLTVLGGGGSGGGGSGGGGSEVQLVESGGGLVQPGGSLRLSCAASGFTFSSYAMSWVRQAPGKGLEWVSTINSGTGSPYYADSVKGRFTISRDNSKNTLYLQMNSLRAEDTAVYYCAKNFFDGSWFLAPPAMDYWGQGTLVTVSSHHHHHH', '< 4.51'),
  ('AS170036 VL1VH1-57K108S (scFv) scFv: QSALTQPRSVSGSPGQSVTISCAGTSSDVGSENYVSWYQQHPGKAPKLMIYQVNKRASGVPDRFSGSKSGNTASLTISGLQAEDEADYYCASYRSSDHNIVFGGGTKLTVLGGGGSGGGGSGGGGSEVQLVESGGGLVQPGGSLRLSCAASGFTFSSYAMSWVRQAPGKGLEWVSTINSGTGKPYYADSVKGRFTISRDNSKNTLYLQMNSLRAEDTAVYYCAKNFFDGSWFLSPPAMDYWGQGTLVTVSSHHHHHH', '> 8.00'),
  ('AS170036 VL1VH1 (scFv) scFv: QSALTQPRSVSGSPGQSVTISCAGTSSDVGSENYVSWYQQHPGKAPKLMIYQVNKRASGVPDRFSGSKSGNTASLTISGLQAEDEADYYCASYRSSDHNIVFGGGTKLTVLGGGGSGGGGSGGGGSEVQLVESGGGLVQPGGSLRLSCAASGFTFSSYAMSWVRQAPGKGLEWVSTINSGTGSPYYADSVKGRFTISRDNSKNTLYLQMNSLRAEDTAVYYCAKNFFDGSWFLGPPAMDYWGQGTLVTVSSHHHHHH', '< 5.55'),
  ('AS170036 VL1VH1-56Y98Q108S (scFv) scFv: QSALTQPRSVSGSPGQSVTISCAGTSSDVGSENYVSWYQQHPGKAPKLMIYQVNKRASGVPDRFSGSKSGNTASLTISGLQAEDEADYYCASYRSSDQNIVFGGGTKLTVLGGGGSGGGGSGGGGSEVQLVESGGGLVQPGGSLRLSCAASGFTFSSYAMSWVRQAPGKGLEWVSTINSGTYSPYYADSVKGRFTISRDNSKNTLYLQMNSLRAEDTAVYYCAKNFFDGSWFLSPPAMDYWGQGTLVTVSSHHHHHH', '> 7.74');

Task: Which pKd value is on record for AS170036 VL1VH1-57M98Q (scFv) scFv: QSALTQPRSVSGSPGQSVTISCAGTSSDVGSENYVSWYQQHPGKAPKLMIYQVNKRASGVPDRFSGSKSGNTASLTISGLQAEDEADYYCASYRSSDQNIVFGGGTKLTVLGGGGSGGGGSGGGGSEVQLVESGGGLVQPGGSLRLSCAASGFTFSSYAMSWVRQAPGKGLEWVSTINSGTGMPYYADSVKGRFTISRDNSKNTLYLQMNSLRAEDTAVYYCAKNFFDGSWFLGPPAMDYWGQGTLVTVSSHHHHHH ?
Result: < 4.37

The reported measurements were obtained from patent US20240279318A1.
